- System: A498
- test_method_notes: NCI tumour cell line growth inhibition, 48 h
Activity calls are given as the source filed them. Rule as the data show it: active = GI50 up to about 1.1 µM and inactive = higher.
Outcome codes: active, inactive

{"compound": "N/C(=N\\c1ccc(Cl)cc1)NS(=O)(=O)c1c(C(F)(F)F)cccc1C(F)(F)F", "assigned_category": "inactive"}
{"compound": "CCOC(=O)C(C(=O)c1ccccc1-c1ccccc1C(=O)O)=P(c1ccccc1)(c1ccccc1)c1ccccc1", "assigned_category": "inactive"}
{"compound": "CCN(CC)CCNc1ccc2nnn3c4ccc([N+](=O)[O-])cc4c(=O)c1c23", "assigned_category": "inactive"}
{"compound": "COc1ccc(OC)c2c1C=CC(Br)=CC2", "assigned_category": "active"}
{"compound": "CNC(=O)CN(CC(N)=O)C(=O)NC", "assigned_category": "inactive"}
{"compound": "O=C(Nc1ccc(Cl)cc1)c1cccc([N+](=O)[O-])c1O", "assigned_category": "inactive"}
{"compound": "COc1ccc(C#CC(=O)O)c(OC)c1", "assigned_category": "inactive"}
{"compound": "CN(C)S(=O)(=O)Nc1ccccn1", "assigned_category": "inactive"}
{"compound": "OC1NC2Nc3ccccc3NC2NC1O (centres undefined)", "assigned_category": "inactive"}
{"compound": "O=C(NC1CCCCC1)N1CCNC1=S", "assigned_category": "inactive"}
{"compound": "CCCCCCc1ccc(C(=O)NO)cc1", "assigned_category": "inactive"}
{"compound": "C/C(CC(O)(C(F)(F)F)C(F)(F)F)=N\\N", "assigned_category": "inactive"}
{"compound": "COc1cc(/C=C2/SC(c3ccccc3)N(Cc3ccccc3)C2=O)cc(OC)c1OC (centres undefined)", "assigned_category": "inactive"}
{"compound": "CCOC(=O)c1ccc(/N=N/c2cc(C(=O)OCC)ccc2O)cc1", "assigned_category": "inactive"}
{"compound": "CCCNC(=O)Cn1c2c(c3ccccc31)CCCC2", "assigned_category": "inactive"}
{"compound": "Cc1ccc(S(=O)(=O)N(CC(O)COc2ccccc2)c2c(F)c(F)c(F)c(F)c2F)cc1 (centres undefined)", "assigned_category": "inactive"}
{"compound": "O=C(CNC(=O)OCc1ccccc1)NCCCCC(NC(=O)OCc1ccccc1)C(=O)O (centres undefined)", "assigned_category": "inactive"}
{"compound": "CCCCCCCC/C=C1\\CCC(CN(C)C)C1=O (centres undefined)", "assigned_category": "inactive"}
{"compound": "O=C(c1ccccc1)N1CCC(Nc2cccnc2)O1 (centres undefined)", "assigned_category": "inactive"}
{"compound": "CCN1C(=O)/C(=C\\c2coc3ccccc3c2=O)SC1=S", "assigned_category": "inactive"}
{"compound": "CCOC(=O)C1Sc2ccccc2N=C1C (centres undefined)", "assigned_category": "inactive"}
{"compound": "O=C(O)c1cccc(/N=N/c2c(S(=O)(=O)O)ccc3c2C(=O)c2ccccc2C3=O)c1O", "assigned_category": "inactive"}
{"compound": "COc1nc(-c2cn(S(=O)(=O)c3ccc(C)cc3)c3ccc(Br)cc23)cc(C(F)(F)F)c1C#N", "assigned_category": "inactive"}
{"compound": "CC(=O)NC(CCCNCc1ccccc1)C(=O)NCc1ccccc1 (centres undefined)", "assigned_category": "inactive"}
